target: hMC2 receptor (Homo sapiens); experiment: hMC2 membrane binding assay ([125I]ACTH (1-39) Tyr23, SPA); design: scale not given here; settings: crude hMC2R membranes from CRE-bla-CHO-K1 cells expressing hMC2 receptor and hMRAP; [125I]ACTH (1-39) Tyr23 0.2 nM; 1.5 hours at room temperature; read-out: MC2R binding potency
Sequence (Q01718 whole entry): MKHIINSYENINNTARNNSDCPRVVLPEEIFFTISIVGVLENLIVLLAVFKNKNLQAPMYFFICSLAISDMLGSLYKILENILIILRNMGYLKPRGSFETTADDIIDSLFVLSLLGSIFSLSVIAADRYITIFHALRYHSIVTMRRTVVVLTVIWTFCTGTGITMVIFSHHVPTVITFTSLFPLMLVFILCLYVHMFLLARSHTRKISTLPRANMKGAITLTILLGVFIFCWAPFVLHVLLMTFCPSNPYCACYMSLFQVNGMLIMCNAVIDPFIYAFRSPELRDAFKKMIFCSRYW
Sequence (Q8TCY5 whole entry partner): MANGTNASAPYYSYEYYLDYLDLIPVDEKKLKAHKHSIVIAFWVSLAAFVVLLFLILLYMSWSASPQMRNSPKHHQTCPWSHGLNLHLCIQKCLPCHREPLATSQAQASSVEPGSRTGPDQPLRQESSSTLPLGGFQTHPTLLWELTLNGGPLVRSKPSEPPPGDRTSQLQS
pKi: −log10 of the molar value.
Observable: pKi

CCOc1ncccc1-c1ccc(N2CCN(C(=O)N3CCCC3(C)C(F)(F)F)C[C@H]2CC)c(C(=O)N[C@@H]2CCNC2)n1 (stereo partly drawn) :: > 8.00
CCOc1ncccc1-c1ccc(N2CCN(C(=O)N3CCc4cccc(C)c43)C[C@H]2CC)c(C(=O)N[C@@H]2CCNC2)n1 :: > 8.00

Let us examine a further case.
INPUT: Name the recorded pKi of the item `CCOc1ccccc1-c1ccc(N2CCN(C(=O)C3(C(F)(F)F)CCCC3)C[C@H]2CC)c(C(=O)NC2CN(C)C2)n1` in your answer.
OUTPUT: > 8.00
